The reported measurements were obtained from patent US20230263822A1.

# System: IL-1β, IL-6, IFN-γ, TNF-α, IL-8, MIP-1α, MCP-1, MIP-1β, RANTES
# EXPERIMENT DESCRIPTION: Cytokine and chemokine assays in cynomolgus monkeys (Example 46)
# Type: in vivo
# STATED CONDITIONS: day-14 (before start of treatment)
# Experimental: Groups, each consisting of two male and two female monkeys, were injected subcutaneously with 25 mg/kg of ISIS 416850, ISIS 449709, ISIS 445522, ISIS 449710, ISIS 449707, ISIS 449711, ISIS 449708, 416858, and ISIS 445531. […] Body weights were taken 14 days and 7 days before the start of treatment and were then measured weekly throughout the treatment period. […]
Strand notation (5' to 3'): a small letter for the sugar, then the base; units joined by * are phosphorothioate-linked, units joined directly phosphodiester-linked; [ ] holds rarer units or linkages, { } end groups; capitals alone tell only the bases. e = 2'-O-(2-methoxyethyl) (MOE); [5mC] = 5-methylcytosine; d = 2'-deoxy (DNA)
Please use the following IL-1ß level ranges when assigning a class: low end: < 100 pg/mL; middle: ≥ 100 pg/mL and < 200 pg/mL; high end: ≥ 200 pg/mL

Look over these answered cases.
# SUBSTANCE, DISCRETE LABEL
measured = [
    ("ISIS 449709: 3-8-3, 4-8-4, 2-10-2, 3-10-3 or 4-10-4 MOE microwalk gapmer (Table 46) (antisense eG*e[5mC]*eA*e[5mC]*dA*dG*dT*dT*dT*d[5mC]*dT*dG*dG*d[5mC]*eA*eG*eG*e[5mC])", "middle"),
    ("ISIS 449708: 3-8-3, 4-8-4, 2-10-2, 3-10-3 or 4-10-4 MOE microwalk gapmer (Table 46) (antisense eA*e[5mC]*eA*dG*dT*dT*dT*d[5mC]*dT*dG*dG*e[5mC]*eA*eG)", "low end"),
]

Qu. Hi, small favor: classify ISIS 449707: 3-8-3, 4-8-4, 2-10-2, 3-10-3 or 4-10-4 MOE microwalk gapmer (Table 46) (antisense e[5mC]*eA*e[5mC]*eA*dG*dT*dT*dT*d[5mC]*dT*dG*dG*e[5mC]*eA*eG*eG) by its IL-1ß level when you get a moment.
Ans. middle

Qu. Just checking, what class would you give ISIS 449711: 3-8-3, 4-8-4, 2-10-2, 3-10-3 or 4-10-4 MOE microwalk gapmer (Table 46) (antisense eA*e[5mC]*dA*dG*dT*dT*dT*d[5mC]*dT*dG*dG*d[5mC]*eA*eG) here?
Ans. low end

Qu. Please indicate the class for ISIS 416850: MOE gapmer, nucleobases 1275 to 1318 of SEQ ID NO: 1 (Table 8) (antisense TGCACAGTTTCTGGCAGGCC; MOE gapmer, wing and gap sizes not given here) based on its IL-1ß level.
Ans. high end

Qu. Lab note: sort ISIS 449710: 3-8-3, 4-8-4, 2-10-2, 3-10-3 or 4-10-4 MOE microwalk gapmer (Table 46) (antisense e[5mC]*eA*e[5mC]*dA*dG*dT*dT*dT*d[5mC]*dT*dG*dG*d[5mC]*eA*eG*eG) into the matching IL-1ß level band.
Ans. high end

Qu. Which class holds ISIS 445522: 5-8-5 or 6-8-6 MOE microwalk gapmer (Table 44) (antisense eG*e[5mC]*eA*e[5mC]*eA*dG*dT*dT*dT*d[5mC]*dT*dG*dG*e[5mC]*eA*eG*eG*e[5mC]) ?
Ans. middle
